FYI, the data here is from PubChem BioAssay (NCI).

Tested on: SK-MEL-2 melanoma
Protocol notes: NCI-60 one-dose screen, 48 h
Applied conditions: 10 µM unless noted
About 83,000 compounds went through this panel and 20% of them were active in at least one assay; those are over-represented in the sample as a whole. Activity calls are given as the source filed them. How the source made its calls: active means growth percent below 10; inactive means the rest.
Allowed answers: YES (active), NO (inactive)

Request: Tell me the recorded outcome of this test for "COc1ccc(-c2nc(SCC(C)C)nc(NCCc3c[nH]c4ccccc34)c2C#N)cc1" .
Result: NO

Request: Given "Cn1cc(-c2nc(N)nnc2-c2c[nH]c3ccc(F)cc23)c2cccnc21" , state the outcome it received in this test.
Result: NO

Request: How did this test come out for "Nc1cccc(SCc2cc3ccccc3[nH]c2=O)c1" ?
Result: NO

Request: Which outcome was entered for the compound "Cc1cc2c(cc1Cl)C(=O)/C(=C/c1ccccc1)O2" in this test?
Result: NO

Request: How did this test come out for "N#Cc1c(-c2cccc(Cl)c2Cl)cc(-c2c[nH]c3ccccc23)[nH]c1=O" ?
Result: NO

Request: Returns: the outcome recorded for "C#C[C@]1(O)CC[C@H]2[C@@H]3CC=C4c5sc(-c6ccc(O)c(O)c6)nc5CC[C@]4(C)[C@H]3CC[C@@]21C" in this assay.
Result: YES

Request: State the result this test recorded for "O=C(c1ccccc1)c1ccc2nc(-c3cccc(Cl)c3)[nH]c2c1" .
Result: NO

Request: Which outcome was assigned to "Cc1cccc(Nc2nc3ccccc3nc2/C=C/c2ccc(F)cc2)c1" in this test?
Result: NO

Request: What did the test return for "CC(C)c1sc(NC(=O)c2cc(NC(=O)c3cc(NC(=O)c4cscn4)cn3C)cn2C)nc1C(=O)NCCCN(C)C" ?
Result: YES

Request: For this compound, state the assay outcome: "CCC(C)(C)c1ccc(OCCCCCCN2CCN(c3ccncc3)CC2)cc1"
Result: NO
